- Study system: AChE (Homo sapiens, UniProt P22303)
- Construct: purchased Sigma Aldrich (Steinheim, Germany)
- Sequence (P22303 32-614): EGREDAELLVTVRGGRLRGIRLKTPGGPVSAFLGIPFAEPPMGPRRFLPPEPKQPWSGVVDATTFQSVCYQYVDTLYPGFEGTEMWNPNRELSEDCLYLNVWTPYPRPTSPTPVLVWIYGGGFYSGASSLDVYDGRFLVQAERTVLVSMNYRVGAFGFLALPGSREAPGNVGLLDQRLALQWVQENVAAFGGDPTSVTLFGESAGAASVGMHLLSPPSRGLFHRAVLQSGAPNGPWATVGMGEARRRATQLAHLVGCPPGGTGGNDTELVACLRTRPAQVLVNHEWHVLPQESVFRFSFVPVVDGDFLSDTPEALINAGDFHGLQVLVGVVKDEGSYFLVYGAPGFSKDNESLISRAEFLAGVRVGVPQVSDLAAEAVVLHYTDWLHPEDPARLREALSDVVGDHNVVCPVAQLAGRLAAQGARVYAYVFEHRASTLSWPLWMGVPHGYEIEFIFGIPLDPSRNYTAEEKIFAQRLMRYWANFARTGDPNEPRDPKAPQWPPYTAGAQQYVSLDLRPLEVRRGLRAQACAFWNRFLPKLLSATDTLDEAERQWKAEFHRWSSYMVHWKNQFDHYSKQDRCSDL
- Experiment description: biochemical
- Type: biochemical
- Run conditions: mean ± SEM; mean of four values from Lineweaver-Burk plot, its secondary re-plots and Dixon plot
Reported metric: Ki (µM)
One number for each entry, in µM.

COc1ccc2ccc(=O)oc2c1C(O)C(=O)C(C)C (centres unmarked)	50

Fill in: Ki of COc1ccc2ccc(=O)oc2c1C(OC(=O)CC(C)C)C(=O)C(C)C (centres unmarked) is ___
43

====

Exercise: for every item that follows, state its recorded IC50.
- Study system: BChE (Homo sapiens)
- Construct: purchased Sigma Aldrich (Steinheim, Germany)
- Sequence (P06276 29-602): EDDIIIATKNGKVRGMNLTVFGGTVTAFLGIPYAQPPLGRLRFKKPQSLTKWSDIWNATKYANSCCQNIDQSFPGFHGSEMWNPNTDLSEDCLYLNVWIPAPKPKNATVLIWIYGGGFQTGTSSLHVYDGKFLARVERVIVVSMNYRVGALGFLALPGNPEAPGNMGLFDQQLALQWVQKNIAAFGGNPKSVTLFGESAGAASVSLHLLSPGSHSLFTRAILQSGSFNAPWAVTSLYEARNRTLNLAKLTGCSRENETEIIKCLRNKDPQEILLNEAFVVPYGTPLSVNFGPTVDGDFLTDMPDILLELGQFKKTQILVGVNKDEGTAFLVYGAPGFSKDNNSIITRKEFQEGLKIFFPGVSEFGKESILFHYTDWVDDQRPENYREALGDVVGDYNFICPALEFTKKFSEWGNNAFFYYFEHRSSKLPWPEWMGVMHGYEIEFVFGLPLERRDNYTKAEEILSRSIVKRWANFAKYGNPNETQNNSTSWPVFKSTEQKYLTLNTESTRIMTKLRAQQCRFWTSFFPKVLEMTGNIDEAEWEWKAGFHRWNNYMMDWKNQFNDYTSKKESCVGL
- Experiment description: biochemical
- Assay type: biochemical
- Run conditions: mean ± SEM of 3 experiments
Give bare numbers, in µM.

COc1ccc2ccc(=O)oc2c1C(O)C(=O)C(C)C (centres unmarked) [Murranganone (2), murranganone]	74.3

Proceed to the following item.
Fill in: IC50 of C=C(C)[C@@H](OCC)[C@@H](O)c1c(OC)ccc2ccc(=O)oc12 [2′-O-Ethylmurrangatin (1), 2′-O-ethylmurrangatin] is ___
843
